# assay_explanation: MITF-driven TRPM1 luciferase induction in melanoma cells – cell-based, SK-MEL-5, single point, primary screen (AID 588334);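 also: 0% = neutral control wells and 100% = parthenolide positive control wells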
# condition_description: SK-MEL-5 TRPM1-promoter luciferase, 24 h; at 12.5 µM; active compounds read high; % of positive control, neutral wells = 0
The campaign covered roughly 300,000 compounds. About 2,300 (0.77%) were called active. The entries come from a sample that favours actives as a whole.
Hi there, I'd appreciate the recorded activation for every entry that follows.
Numbers only, in %.

COc1ccccc1OCCCC(=O)Nc1ccc2c(c1)OCCO2	24.7
COc1ccc(CNCCCNCc2ccc(OC)c(OC)c2)cc1OC	7.54
O=C1COc2c1ccc(O)c2O	1.19
CCc1ccccc1OCC(=O)Nc1ccc2c(c1)OCCO2	89.7
CCOc1cccc(C(=O)Nc2nnc(-c3cccs3)s2)c1	25.8

Would you kindly look at the next entry?
What value of activation has been reported for the following molecule? CS(=O)(=O)N1CCc2nc(-c3ccccc3)sc2C1 92.1

---

# assay_explanation: MITF-driven TRPM1 luciferase induction in melanoma cells – cell-based, SK-MEL-5, single point, primary screen (AID 588334);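 also: 0% = neutral control wells and 100% = parthenolide positive control wells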
# condition_description: SK-MEL-5 TRPM1-promoter luciferase, 24 h; at 12.5 µM; active compounds read high; % of positive control, neutral wells = 0
The campaign covered roughly 300,000 compounds. About 2,300 (0.77%) were called active. For the sample, actives were picked, then their nearest neighbours and some compounds at random.
value_kind: activation (%)
Numbers only, in %.

# count of solved cases: 10
COc1ccc(CN2CCN(C(=O)c3cc(C4CC4)nn3-c3ccccc3)CC2)cc1F	-1.05
NC1=NOC(=O)C1C1CCCCC1 (stereo not drawn)	-0.578
O=C(C[C@H]1C[C@H](C(=O)N2CCOCC2)[C@@]2(CCC3CCCC3)c3[nH]c4ccc(Cl)cc4c3CCN2C1=O)NCc1ccco1	-16.1
COc1ccccc1N(CC(=O)Nc1ccc(C)cc1Cl)S(=O)(=O)c1cccs1	-4.34
Cc1cccnc1CC(C)NC(=O)c1cc(COc2cncc(Cl)c2)on1 (stereo not drawn)	51.4
COc1ccc(OCc2cc(C(=O)NCC3(C)COC3)no2)c(Cl)c1	37.2
CC(=C/c1ccccc1)/C=N/NC(=O)c1cc(C)oc1C	25.1
Cc1cc(OCc2cc(C(=O)NCc3cc(C(C)C)no3)no2)cc(C)c1Cl	84.2
Cc1cc(C(=O)N/N=C/c2ccccc2[N+](=O)[O-])c(C)o1	84.3
COc1cccc(CC(=NO)c2cccc(OC)c2)c1	1.7

For each listed entry, give its activation.
1. COc1cc2c(cc1CNC[C@H]1O[C@@H](n3cnc(C(N)=O)n3)[C@H](O)[C@@H]1O)OCO2
2. O=C(NCCC(=O)N1O[C@@H]2C=C[C@H]1C2)OCC1c2ccccc2-c2ccccc21
3. COc1cccc2[nH]c(C(=O)NCCc3ccccc3)cc12
4. Cc1cccc(NC(=O)c2ccc(S(=O)(=O)N(C)c3ccccc3)cc2)n1
5. Cc1cc(C(=O)N/N=C\C(Br)=C\c2ccccc2)c(C)o1
6. COc1ccc2sc(-c3ccc(N(C)C)cc3)c(-c3ccc4cc[nH]c4c3)c2c1
7. COC[C@@H]1NS(=O)(=O)c2ccc(Br)cc2O[C@H]1c1ccccc1

1. -7.21
2. 12.3
3. 110
4. 1.38
5. 15.4
6. 102
7. 7.36

Using the record for COc1cc(OC)cc(-c2sc3ccc(OC)cc3c2-c2ccc3cc[nH]c3c2)c1 , report its activation. 7.42
